pIC50: −log10 of the molar value.
Literature compilation of pIC50 measurements on PIK3CB (Human).

{"columns": ["smiles-representation", "pIC50"],
 "data": [
  ["Cc1cc(-c2cccc3cc([C@H](C)Nc4ncnc5scnc45)n(-c4ccccc4)c(=O)c23)cnc1F", "5.00 to 6.00"],
  ["Cc1cc(-n2c(C)nc3c(-c4nnc[nH]4)cc(-c4ccncc4)cc32)c2ccccc2n1", 7.59],
  ["Cc1c(-c2ccc3ncc(N4CC(N5CCOCC5)C4)nc3c2)ccc2oc(N)nc12", "< 5.00"],
  ["Cc1cccc2cc(Cn3nc(/C=C4/CCNC4=O)c4c(N)ncnc43)n(-c3ccccc3F)c(=O)c12", "< 5.00"],
  ["C[C@H](Nc1ncnc2[nH]cnc12)c1cc2cccc(Cl)c2c(OCC(C)(C)O)n1", "> 5.00"],
  ["CNS(=O)(=O)c1cc(-c2ccc3ncc(C(=O)N4CCOCC4)n3c2)ccc1OC", "< 5.00"],
  ["Cc1cccc2cc(Cn3nc(-c4ccc5oc(N)nc5c4)c4c(N)ncnc43)n(C3CCC3)c(=O)c12", "> 6.00"],
  ["Nc1nc2ccc(-c3ccc4nnc(-c5cccnc5)n4c3)cc2o1", "> 5.00"]
]}

* * *

Literature compilation of IC50 measurements on PIK3CB (Human) (UniProt P42338).

{"columns": ["smiles-representation", "target", "IC50"],
 "data": [
  ["CCN(CC)c1ncc2c(n1)-c1sc(NC(=O)N3CC[C@@H]4C[C@@]43C(N)=O)nc1CC2", "PIK3CB (Human) (UniProt P42338)", "588 nM"],
  ["C[C@H]1COCCN1c1nc(-c2cnc(N)nc2C(F)(F)F)cc(N2C(=O)OC[C@@H]2C)n1", "PIK3CB (Human) (UniProt P42338)", "146 nM"],
  ["Cc1cccc2cc([C@H](C)Nc3ncnc4[nH]cc(F)c34)n(C3CC3)c(=O)c12", "PIK3CB (Human) (UniProt P42338)", "< 100 nM"],
  ["Fc1nccc(-c2ccc3ncn(-c4cc(N5CCNCC5)nc5ccccc45)c3c2)c1F", "PIK3CB (Human) (UniProt P42338)", "480 nM"],
  ["Cc1cccc2cc(Cn3nc(C#C[C@@H](C)O)c4c(N)ncnc43)n(C3CCCC3)c(=O)c12", "PIK3CB (Human) (UniProt P42338)", "< 10000 nM"],
  ["Cc1cccc2cc(Cn3nc(C#C[C@@H](C)O)c4c(N)ncnc43)n(C(C)C)c(=O)c12", "PIK3CB (Human) (UniProt P42338)", "< 10000 nM"],
  ["Cc1nc(NC(=O)N2CC[C@@H](C)[C@H]2C(N)=O)sc1-c1ccnc(C(C)(C)F)n1", "PIK3CB (Human) (UniProt P42338)", "> 9100 nM"],
  ["C[C@H](Nc1ncnc2scnc12)c1cc2cccc(-c3cncnc3)c2c(=O)n1-c1ccccc1", "PIK3CB (Human) (UniProt P42338)", "1000 to 10000 nM"]
]}

* * *

Literature compilation of pIC50 measurements on PIK3CB (Human) (UniProt P42338).
pIC50: −log10 of the molar value.
observable: pIC50

{"columns": ["molecule", "test-result"],
 "data": [
  ["C[C@H](NC(=O)c1c(N)ncc2cccnc12)c1cc2cccc(Cl)c2c(=O)n1-c1ccccc1", "6.00 to 7.00"],
  ["Cc1nn(C)cc1-c1nc2[nH]c(C(=O)N3CCC(O)CC3)nc2c(N2CCOCC2)c1F", "< 5.00"],
  ["C[C@H]1CN(c2nc3cc(-c4ccc5oc(N)nc5c4)ccc3nc2N)CCN1", "< 5.00"],
  ["C[C@H](NC(=O)c1cnn2cccnc12)c1cc2cccc(Cl)c2c(=O)n1-c1ccccc1", "5.00 to 6.00"],
  ["Nc1nc2cc(-c3ccn4ncc(C(=O)N5CCOCC5)c4c3)cc(Cl)c2o1", "> 6.00"],
  ["Cc1ccccc1-n1c(Cn2nc(C#CC3CC3)c3c(N)ncnc32)nc2nccc(C)c2c1=O", "< 5.00"],
  ["Cc1nnc(-c2cc(-c3ccnc(N)c3F)cc3c2nc(C)n3-c2ccnc3c(Cl)ccc(F)c23)[nH]1 (single isomer, unassigned)", 5.60],
  ["Cc1ccccc1-n1c(Cn2nc(-c3cccc(O)c3)c3c(N)ncnc32)nc2snc(C)c2c1=O", "< 5.00"],
  ["Nc1nc2cc(-c3ccc4ncn(CCN5CCOCC5)c(=O)c4c3)ccc2o1", "> 5.00"],
  ["CC(C)Oc1ccc(-c2cnc(N)c(C(=O)N[C@@H](C)c3cc4cccc(Cl)c4c(=O)n3-c3ccccc3)n2)cc1", "< 5.00"],
  ["CCc1nc2c(-c3nnc[nH]3)cc(-c3ccnc(N)c3F)cc2n1-c1ccnc2cccc(F)c12", 8.10],
  ["CC(C)(N)C(=O)N1CCN(c2ccc3ncc(-c4ccc5oc(N)nc5c4)cc3n2)CC1", "< 5.00"],
  ["C=Cc1nn(Cc2cc3cccc(C)c3c(=O)n2-c2ccccc2C)c2ncnc(N)c12", "< 5.00"],
  ["Nc1nc2cc(-c3ccc4ncc(C5=CCOCC5)nc4n3)ccc2o1", "> 5.00"],
  ["COc1ncc(-c2ccc3nccc(-c4ccc(Cn5cncn5)cc4)c3c2)cc1NS(=O)(=O)c1ccc(F)cc1F", 8.77],
  ["Cc1cccc2cc(Cn3nc(C#CCO)c4c(N)ncnc43)n(-c3ccccc3F)c(=O)c12", "< 5.00"],
  ["CC[C@H](Nc1ncnc(N)c1C#N)c1cc2ncc(Cl)n2nc1-c1ccccc1", 6.52],
  ["Cc1cccc2cc(Cn3nc(-c4cc(O)cc(F)c4)c4c(N)ncnc43)n(-c3ccccc3C(C)C)c(=O)c12", "> 6.00"],
  ["CN1CCC(Nc2ncnc3ccc(-c4ccc5oc(N)nc5c4)nc23)CC1", "> 6.00"],
  ["CNC(=O)C(C)Cn1cnc2ccc(-c3cnc(OC(F)(F)F)c(NS(=O)(=O)c4ccc(F)cc4Cl)c3)cc2c1=O (centres unmarked)", 5.66],
  ["C[C@H]1CN(C(=O)C2CN(c3cnc4ccc(-c5ccc6oc(N)nc6c5)cc4n3)C2)CCN1", "> 5.00"],
  ["N#CCc1ccc(Nc2ncnc3ccc(-c4ccc5[nH]ccc5c4)cc23)cc1", "< 5.00"],
  ["Cc1ccccc1-n1c(Cn2nc(-c3ccc4nc(N)oc4c3)c3c(N)ncnc32)cc2cccc(C)c2c1=O", "> 5.00"],
  ["Nc1nc2cc(-c3ccc4ncc(C(=O)N5CCn6cncc6C5)n4c3)ccc2o1", "> 6.00"],
  ["Cc1nc2c(-c3nnc[nH]3)cc(-c3ccncc3)cc2n1-c1ccnc2c(Cl)ccc(Cl)c12", 8.22],
  ["Nc1ncnc2c1c(-c1cc(O)cc(F)c1)nn2Cc1cc2cccc(Cl)c2c(=O)n1C1CC1", "> 7.00"],
  ["C[C@H](NC(=O)c1c(N)nn2cccnc12)c1cc2cccc(-c3ccccc3)c2c(=O)n1-c1ccccc1", "< 5.00"],
  ["Cc1nc(NC(=O)N2CC[C@@H](CN3CCOCC3)[C@H]2C(N)=O)sc1-c1ccnc(C2(C)CC2)c1", 5.29],
  ["Cc1cccc2cc(Cn3nc(I)c4c(N)ncnc43)n(C)c(=O)c12", "< 5.00"],
  ["COc1ncc(-c2ccc3ncc(C(=O)N4CCOCC4)n3c2)cc1NS(=O)(=O)c1ccccc1", "< 5.00"],
  ["COc1ncc(-c2ccc3ncn(C4CCN(C(C)C)CC4)c(=O)c3c2)cc1NS(=O)(=O)c1ccccc1", "> 7.00"],
  ["Nc1nc2cc(-c3ccn4ncc(-c5ccncc5)c4c3)ccc2o1", "> 7.00"]
]}

* * *

Literature compilation of IC50 measurements on PIK3CB (Human).
observable: IC50

{"columns": ["molecule", "observable", "test-result"],
 "data": [
  ["Cc1nc2c(-c3nnc[nH]3)cc(-c3ccnc(C#N)c3)cc2n1-c1ccnc2c(Cl)ccc(Cl)c12 (single isomer, unassigned)", "IC50", "1 nM"],
  ["Nc1nc2cc(-c3ccc4nccc(-c5cn[nH]c5)c4c3)ccc2o1", "IC50", "< 100 nM"],
  ["C[C@@H]1CN(C(=O)c2nc([C@H](C)Nc3ncnc4[nH]cnc34)cc3cccc(Cl)c23)CCN1", "IC50", "< 10000 nM"],
  ["Cc1cccc2cc(Cn3nc(I)c4c(N)ncnc43)n(-c3ccccc3OCCN3CCOCC3)c(=O)c12", "IC50", "> 10000 nM"]
]}

* * *

Literature compilation of IC50 measurements on PIK3CB (Human) (UniProt P42338).

{"columns": ["smiles-representation", "IC50"],
 "data": [
  ["C[C@H]1CN(c2cnc3ccc(-c4ccc5sc(N)nc5c4)cc3n2)CCN1", "< 1 µM"],
  ["COc1cc(-c2cccc3cc([C@H](C)Nc4nc(N)ncc4C#N)n(-c4cccc(F)c4)c(=O)c23)ccn1", "1 to 10 µM"],
  ["C[C@H](NC(=O)c1c(N)nn2cccnc12)c1cc2cccc(C#CCNC(=O)C3CC(=O)CC(=O)C3)c2c(=O)n1-c1ccccc1", "1 to 10 µM"],
  ["C[C@H](Nc1ncnc2[nH]cnc12)c1cc2cccc(Cl)c2c(C(=O)N2CCCC2)n1", "> 10 µM"]
]}
